# Measured on: c-Myc template DNA (c-myc quadruplex)
# Assay method text: Quadruplex binding / stop assay (Taq polymerase arrest, capillary electrophoresis)
# Condition: read-out: Stop Data c-Myc μM; concentration at which 50% of the DNA was arrested (arrested:full-length 1:1)
Metric: IC50 (µM)

Known results for molecules:
Record "CN1CCN(CCCNc2c(F)cc3c(=O)c(C(=O)O)cn4c3c2Oc2cc3ccccc3cc2-4)CC1" . Reported IC50: 0.75

Record "O=C(NCCN1CCCC1)c1cn2c3c(c(F)c(F)cc3c1=O)Oc1cc3c(cc1-2)oc1ccccc13" . Reported IC50: 1.75

Record NC1CCN(c2c(F)cc3c(=O)c(C(=O)NCCN4CCOCC4)cn4c3c2Oc2cc3c(cc2-4)oc2ccccc23)C1 (stereo not drawn) . Reported IC50: 0.375

(I) CN(C)/C=N/C1CCN(c2c(F)cc3c(=O)c(C(=O)NCCC4CCCN4C)cn4c3c2Oc2cc3ccccc3cc2-4)C1 (stereo not drawn)
(II) CN1CCCC1CCNC(=O)c1cn2c3cc4c(=O)c5ccccc5c(=O)c4cc3oc3c(NCCCN4CCOCC4)c(F)cc(c1=O)c32 (stereo not drawn)
(III) CN1CCCC1CCNC(=O)c1cn2c3c(c(N4CC5CCCNC5C4)c(F)cc3c1=O)Oc1cc3ccccc3cc1-2 (stereo not drawn)
[in] # rank by IC50, ascending (min first) I'd appreciate it if you listed the labels in the requested order.
[out] III, II, I
(III: 0.375 µM, II: 0.9 µM, I: 2.5 µM)

(a) Nc1c(F)c(N2CCC(N)C2)c2c3c1c(=O)c(C(=O)NCCN1CCOCC1)cn3-c1cc3ccccc3cc1O2 (stereo not drawn)
(b) CN1CCCC1CCNC(=O)c1cn2c3c(c(NCCCN4CCOCC4)c(F)c(N)c3c1=O)Oc1cc3ccccc3cc1-2 (stereo not drawn)
(c) O=C(CN1CCCCC1)N[C@@H]1CCN(c2c(F)cc3c(=O)c(C(=O)NCCN4CCCC4)cn4c3c2Oc2cc3c(cc2-4)oc2ccccc23)C1
(d) CN(C)CCCCNC(=O)c1cn2c3cc4oc5cc([N+](=O)[O-])ccc5[nH]c4cc3oc3c(NCCC4CCCN4C)c(F)cc(c1=O)c32 (stereo not drawn)
[in] # rank by IC50, ascending (min first) I'd appreciate it if you listed the labels in the requested order.
[out] d, c, b, a

(A) CN1CCCC1CCNc1c(F)cc2c(=O)c(-c3nc4ccccc4s3)cn3c2c1Oc1cc2ccccc2cc1-3 (stereo not drawn)
(B) CN1CCCC1CCNc1c(F)cc2c(=O)c(C(=O)O)cn3c4cc5oc6cc(N)ccc6[nH]c5cc4oc1c23 (stereo not drawn)
[in] Of A and B , whose reported IC50 is numerically smaller? Reply with the label of the item you choose.
[out] B

(a) CN(C)CCCCNc1c(F)cc2c(=O)c(C(=O)O)cn3c2c1Oc1cc2ccccc2cc1-3
(b) N=C(N)NCCCCNC(=O)c1cn2c3c(c(NCCN4CCCC4)c(F)cc3c1=O)Oc1cc3ccccc3cc1-2
[in] Of a and b , whose reported IC50 is numerically smaller? Reply with the label of the item you choose.
[out] b

(P) O=C(c1cn2c3c(c(NC4CCNC4)c(F)cc3c1=O)Oc1cc3ccccc3cc1-2)N1CCOCC1 (stereo not drawn)
(Q) CN1CCN(CCCNC(=O)c2cn3c4cc5c(cc4oc4c(NCCC6CCCN6C)c(F)cc(c2=O)c43)c(=O)c2ccccc25)CC1 (stereo not drawn)
[in] Recorded IC50 values differ for P and Q ; which one is higher? Reply with the label of the item you choose.
[out] P

(1) O=C(NCCCN1CCOCC1)c1cn2c3c(c(NCCN4CCCC4)c(F)cc3c1=O)Oc1cc3c(cc1-2)oc1ccccc13
(2) CN(C)CCNC(=O)c1cn2c3cc4c(=O)c5ccccc5c(=O)c4cc3oc3c(N4CCN(C)CC4)c(F)cc(c1=O)c32
(3) O=C(NCCN1CCCC1)c1cn2c3c(c(N4CCC(c5cnccn5)C4)ccc3c1=O)Oc1ccccc1-2 (stereo not drawn)
(4) CN(C)CC(C)(C)CNC(=O)c1cn2c3c(c(N4CC5CCCNC5C4)c(F)cc3c1=O)Oc1cc3ccccc3cc1-2 (stereo not drawn)
[in] # rank by IC50, ascending (min first) I'd appreciate it if you listed the labels in the requested order.
[out] 4, 2, 1, 3

(a) N=C(N)NCCCNC(=O)c1cn2c3c(c(NCCN4CCCC4)c(F)cc3c1=O)Oc1cc3ccccc3cc1-2
(b) CN(C)CCCCNC(=O)c1cn2c3c(c(N4CCC(N)C4)c(F)cc3c1=O)Oc1cc3c(cc1-2)Cc1ccccc1-3 (stereo not drawn)
(c) CN(C)C1CCN(c2c(F)cc3c(=O)c(C(=O)NCCC4CCCN4C)cn4c3c2Oc2cc3ccccc3cc2-4)C1 (stereo not drawn)
(d) CN(C)CCCCNCCC(=O)N[C@@H]1CCN(c2c(F)cc3c(=O)c(C(=O)NCCCN4CCN(C)CC4)cn4c3c2Oc2cc3c(cc2-4)oc2ccccc23)C1
[in] # rank_down: sort by IC50, max first I'd appreciate it if you listed the labels in the requested order.
[out] c, a, b, d
(c: 1.75 µM, a: 1 µM, b: 0.375 µM, d: 0.18 µM)

(I) N[C@@H]1CCN(c2c(F)cc3c(=O)c(C(=O)NCCCN4CCOCC4)cn4c3c2Oc2cc3c(cc2-4)oc2ccccc23)C1
(II) CN1CCCC1CCNC(=O)c1cn2c3c(c(N4CCC(C#N)(c5ccccc5)CC4)c(F)cc3c1=O)Oc1cc3ccccc3cc1-2 (stereo not drawn)
[in] Recorded IC50 values differ for I and II ; which one is higher? Reply with the label of the item you choose.
[out] II

----------
# Measured on: c-Myc template DNA (c-myc quadruplex)
# Assay method text: Quadruplex binding / stop assay (Taq polymerase arrest, capillary electrophoresis)
# Condition: read-out: Stop Data c-Myc μM; concentration at which 50% of the DNA was arrested (arrested:full-length 1:1)
Metric: IC50 (µM)

Record CN1CCN(CCCNC(=O)c2cn3c4c(c(N5CC[C@@H](NC(=O)CCNCCC6CCCN6C)C5)c(F)cc4c2=O)Oc2cc4c(cc2-3)oc2ccccc24)CC1 (stereo partly drawn) . Reported IC50: 0.18

Record CC1CCCC(C)N1CCCNc1c(F)cc2c(=O)c(C(=O)NCCC3CCCN3C)cn3c2c1Oc1cc2ccccc2cc1-3 (stereo not drawn) . Reported IC50: 1.75

Record "CN1CCN(CCCNc2c(F)cc3c(=O)c(C(=O)NCCCN4CCOCC4)cn4c3c2Oc2cc3ccccc3cc2-4)CC1" . Reported IC50: 1.75

Record "CN(C)CCCCNC(=O)c1cn2c3c(c(NCCCCN(C)C)c(F)cc3c1=O)Oc1cc3c(cc1-2)oc1ccccc13" . Reported IC50: 0.75

(a) CN1CCCC1CCNC(=O)c1cn2c3c(c(N4CCC(c5ccccn5)C4)c(F)cc3c1=O)Oc1cc3ccccc3cc1-2 (stereo not drawn)
(b) CN1CCCC1CCNC(=O)c1cn2c3c(c(NCCCNC(=O)OC(C)(C)C)c(F)cc3c1=O)Oc1cc3ccccc3cc1-2 (stereo not drawn)
[in] Recorded IC50 values differ for a and b ; which one is higher? Reply with the label of the item you choose.
[out] b
(b: 1.75 µM, a: 0.75 µM)

----------
# Measured on: c-Myc template DNA (c-myc quadruplex)
# Assay method text: Quadruplex binding / stop assay (Taq polymerase arrest, capillary electrophoresis)
# Condition: read-out: Stop Data c-Myc μM; concentration at which 50% of the DNA was arrested (arrested:full-length 1:1)
Metric: IC50 (µM)

(P) N[C@@H]1CCN(C(=O)c2cn3c4c(c(NCCN5CCOCC5)c(F)cc4c2=O)Oc2c-3ccc3ccccc23)C1
(Q) NC1CCN(c2c(F)cc3c(=O)c(C(=O)NCc4nc5ccccc5[nH]4)cn4c3c2Oc2cc3ccccc3cc2-4)C1 (stereo not drawn)
[in] Of P and Q , whose reported IC50 is numerically smaller? Reply with the label of the item you choose.
[out] Q

(a) CN1CCN(CCCNC(=O)c2cn3c4cc5c(=O)c6ccccc6c(=O)c5cc4oc4c(N5CCC(N)C5)c(F)cc(c2=O)c43)CC1 (stereo not drawn)
(b) O=C(NCCN1CCCC1)c1cn2c3cc4oc5cc([N+](=O)[O-])ccc5[nH]c4cc3oc3c(NCCCN4CCOCC4)c(F)cc(c1=O)c32
(c) CN1CCCC1CCNC(=O)c1cn2c3c(c(N4CCC(N)C4)c(F)c(N)c3c1=O)Oc1cc3ccccc3cc1-2 (stereo not drawn)
(d) CN1CCCC1CCNC(=O)c1cn2c3c(c(C4C[C@@H](N)[C@H](c5ccccc5)C4)c(F)cc3c1=O)Oc1cc3ccccc3cc1-2 (stereo partly drawn)
[in] # rank by IC50, ascending (min first) I'd appreciate it if you listed the labels in the requested order.
[out] b, d, c, a
